- target-desc: alpha-glucosidase enzyme from Saccharomyces cerevisiae (EC 3.2.1.20) (Saccharomyces cerevisiae, UniProt P53341)
- Construct: purchased Sigma-Aldrich
- Sequence (P53341 whole entry): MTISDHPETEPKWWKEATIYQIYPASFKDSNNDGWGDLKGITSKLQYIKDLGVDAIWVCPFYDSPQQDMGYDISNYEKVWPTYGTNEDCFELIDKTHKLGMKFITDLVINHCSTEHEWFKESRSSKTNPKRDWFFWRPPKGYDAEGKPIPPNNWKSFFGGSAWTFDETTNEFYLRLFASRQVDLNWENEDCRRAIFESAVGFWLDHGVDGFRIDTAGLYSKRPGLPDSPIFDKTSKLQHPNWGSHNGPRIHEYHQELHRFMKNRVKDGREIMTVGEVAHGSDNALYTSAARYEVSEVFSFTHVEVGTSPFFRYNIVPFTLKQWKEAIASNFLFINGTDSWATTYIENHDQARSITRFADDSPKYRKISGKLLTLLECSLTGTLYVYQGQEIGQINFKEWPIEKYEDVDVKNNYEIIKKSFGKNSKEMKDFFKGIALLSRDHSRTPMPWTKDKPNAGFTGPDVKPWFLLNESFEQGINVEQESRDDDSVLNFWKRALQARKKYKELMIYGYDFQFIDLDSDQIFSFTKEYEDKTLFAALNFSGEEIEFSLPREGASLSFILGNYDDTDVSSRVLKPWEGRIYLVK
- test-protocol: biochemical
- Format: biochemical
- assay-setup: isolated compounds (Table 2); read-out: IC50 (converted)
quantity: IC50 (µM)
Value expressed in µM; do not type the unit.

Requested read-out: IC50. Entry: COc1ccc(/C=C/C(=O)c2ccc(O)cc2O)cc1 [4-methyl ether isoliquiritigenin]
814

What value of IC50 has been recorded for this entry: O=c1cc(-c2ccc(O)c(O)c2)oc2cc(O)cc(O)c12 [Luteolin, luteolin]
573

Field request: IC50 | item: O=c1cc(-c2ccc(O)c(O)c2)oc2cc(O)ccc12 [5-deoxyluteolin]
2130

Given COc1ccc(/C=C/C(=O)c2ccc(O)cc2O)cc1O [3,2’ ,4’-trihydroxy-4-methoxychalcone, 3,2’,4’-trihydroxy-4-methoxychalcone] , state its recorded IC50.
4450

The reported measurements were obtained from paper PMC8512368.
